B1: Formin-binding protein 4, residues 200 to 261; numbered along this chain, Q8N3X1 (parent)
chain: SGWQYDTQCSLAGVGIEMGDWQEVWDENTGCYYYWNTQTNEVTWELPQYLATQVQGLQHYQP

- Variants of: B1
- ASSAY EXPLANATION: abundance fitness (aPCA) (normalised: wild type 0, dead -1); higher = more abundant; growth selection in yeast, the domain comes from the species named
- CONDITION SUMMARY: Homo sapiens
Entry class follows abundance fitness: band A = under -0.2, band B = from -0.2 up to 0.04, band C = 0.04 and over

Here are 3 variants together with their reported answers.
>  <MUTATION KEY>
G19E

>  <CLASS NAME>
band A

$$$$
>  <MUTATION KEY>
T7H

>  <CLASS NAME>
band A

$$$$
>  <MUTATION KEY>
N28G

>  <CLASS NAME>
band C

$$$$

*Q* Bin this entry: Q8A
*A* band C

*Q* Now consider E17A and answer again.
*A* band B

*Q* Now consider V24H and answer again.
*A* band B

*Q* Now consider Q48H and answer again.
*A* band B

*Q* Now consider D26R and answer again.
*A* band A
